Hey, just so you know, these numbers are from ChEMBL document CHEMBL5325488.

ASSAY_PROTOCOL: Drug concentration in SCID mouse tumor xenografted with human MV4-11 cells at 50 mg/kg, iv measured after 6 hrs by LC-MS/MS method
Format: ADME, organism-based, Neoplasm
ASSAY_CONDITIONS: read-out: Ct

TEST_SMILES | UNIT_NAME | concentration at 6 h
Cc1ncsc1-c1ccc([C@H](C)NC(=O)[C@@H]2C[C@@H](O)CN2C(=O)[C@@H](NC(=O)[C@H]2CC[C@H](CN3CC4(CCC(n5cc(-c6cc(-c7ccccc7O)nnc6N)cn5)CC4)C3)CC2)C(C)(C)C)cc1 | ng/g | 1100

----------
STUDY_SYSTEM: von Hippel-Lindau disease tumor suppressor/SWI/SNF-related matrix-associated actin-dependent regulator of chromatin subfamily A member 2 (Homo sapiens, UniProt P51531+P40337)
Sequence (P51531 whole entry, the tested form may be a part): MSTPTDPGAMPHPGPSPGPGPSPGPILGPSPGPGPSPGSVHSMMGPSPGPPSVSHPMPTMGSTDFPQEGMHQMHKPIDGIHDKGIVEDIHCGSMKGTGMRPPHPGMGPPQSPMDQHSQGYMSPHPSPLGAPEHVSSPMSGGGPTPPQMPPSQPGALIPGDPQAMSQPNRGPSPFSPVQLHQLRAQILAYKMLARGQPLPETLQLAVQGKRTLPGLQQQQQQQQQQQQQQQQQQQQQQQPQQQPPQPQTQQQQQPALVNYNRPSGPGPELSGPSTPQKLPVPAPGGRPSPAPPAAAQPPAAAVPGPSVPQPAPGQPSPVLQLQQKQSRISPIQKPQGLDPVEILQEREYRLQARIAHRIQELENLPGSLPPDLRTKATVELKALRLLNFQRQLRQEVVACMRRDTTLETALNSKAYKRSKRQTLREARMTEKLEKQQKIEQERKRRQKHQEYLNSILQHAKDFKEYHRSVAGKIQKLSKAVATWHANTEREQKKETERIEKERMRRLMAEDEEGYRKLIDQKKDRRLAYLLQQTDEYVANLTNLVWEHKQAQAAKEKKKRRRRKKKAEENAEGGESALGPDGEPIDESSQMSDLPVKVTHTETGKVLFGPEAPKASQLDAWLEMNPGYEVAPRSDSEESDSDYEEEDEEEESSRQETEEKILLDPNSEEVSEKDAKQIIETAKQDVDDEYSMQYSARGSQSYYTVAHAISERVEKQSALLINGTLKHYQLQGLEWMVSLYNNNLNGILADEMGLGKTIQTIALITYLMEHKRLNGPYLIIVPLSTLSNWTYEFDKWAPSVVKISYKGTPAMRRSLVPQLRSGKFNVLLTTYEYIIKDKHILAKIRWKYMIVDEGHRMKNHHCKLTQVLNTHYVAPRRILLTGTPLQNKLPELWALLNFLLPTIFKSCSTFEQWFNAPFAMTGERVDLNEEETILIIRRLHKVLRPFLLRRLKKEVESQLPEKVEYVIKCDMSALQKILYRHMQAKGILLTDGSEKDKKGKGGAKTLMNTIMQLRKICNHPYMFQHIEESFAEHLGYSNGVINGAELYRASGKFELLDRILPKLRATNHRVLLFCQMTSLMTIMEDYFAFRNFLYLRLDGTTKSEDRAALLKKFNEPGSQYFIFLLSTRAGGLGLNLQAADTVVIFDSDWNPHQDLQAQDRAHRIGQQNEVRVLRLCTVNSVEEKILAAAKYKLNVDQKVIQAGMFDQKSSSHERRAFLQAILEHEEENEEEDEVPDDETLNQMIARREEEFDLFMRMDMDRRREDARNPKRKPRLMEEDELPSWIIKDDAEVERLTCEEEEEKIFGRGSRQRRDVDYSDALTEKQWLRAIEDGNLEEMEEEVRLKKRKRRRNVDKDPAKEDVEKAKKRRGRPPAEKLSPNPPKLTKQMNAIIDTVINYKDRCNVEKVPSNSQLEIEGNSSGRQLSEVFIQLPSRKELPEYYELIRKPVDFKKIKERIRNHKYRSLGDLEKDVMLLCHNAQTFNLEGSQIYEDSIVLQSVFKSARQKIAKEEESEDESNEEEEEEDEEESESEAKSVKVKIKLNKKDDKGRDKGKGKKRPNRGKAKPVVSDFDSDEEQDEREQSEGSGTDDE
Sequence (P40337 whole entry, the tested form may be a part): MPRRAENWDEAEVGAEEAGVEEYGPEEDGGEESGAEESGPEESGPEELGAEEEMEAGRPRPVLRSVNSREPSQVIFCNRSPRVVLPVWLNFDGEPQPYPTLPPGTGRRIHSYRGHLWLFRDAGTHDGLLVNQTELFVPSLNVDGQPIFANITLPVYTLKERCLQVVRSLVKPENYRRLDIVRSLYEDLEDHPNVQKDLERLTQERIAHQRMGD
ASSAY_PROTOCOL: PROTAC activity at VHL/C-terminal HiBiT fused SMARCA2 in human HeLa cells assessed as induction of SMARCA2 degradation incubated for 24 hrs by Nano-Glo HiBiT analysis
Assay type: cell-based
Threshold 3 nM. DC50 below it: Met. DC50 at it or above: Not met.

COMPOUND | LABEL
Cc1cc([C@H](C(=O)N2C[C@H](O)C[C@H]2C(=O)N[C@@H](CC(=O)NCCCCCCn2cc(-c3cc(-c4ccccc4O)nnc3N)cn2)c2ccc(-c3scnc3C)cc2)C(C)C)on1 | Not met
Cc1ncsc1-c1ccc([C@@H](C)NC(=O)[C@H]2C[C@H](O)CN2C(=O)[C@H](NC(=O)C2CCC(N3CCC4(CCC(n5cc(-c6cc(-c7ccccc7O)nnc6N)cn5)CC4)CC3)CC2)C(C)(C)C)cc1 (single isomer, unassigned) | Not met
Cc1ncsc1-c1ccc([C@H](C)NC(=O)[C@@H]2C[C@@H](O)CN2C(=O)[C@@H](NC(=O)CCCCCCCCCn2cc(-c3cc(-c4ccccc4O)nnc3N)cn2)C(C)(C)C)cc1 | Met
Cc1ncsc1-c1ccc([C@H](C)NC(=O)[C@@H]2C[C@@H](O)CN2C(=O)[C@@H](NC(=O)[C@H]2CC[C@H](CN3CC4(CCC(n5cc(-c6cc(-c7ccccc7O)nnc6N)cn5)CC4)C3)CC2)C(C)(C)C)cc1 | Not met
